- method-summary: self-splicing fitness, log relative to wild type (ln ratio); higher = more splicing; Tetrahymena group I intron in knt gene, E. coli kanamycin selection, DiMSum; sequences stand for … in CUCUCU…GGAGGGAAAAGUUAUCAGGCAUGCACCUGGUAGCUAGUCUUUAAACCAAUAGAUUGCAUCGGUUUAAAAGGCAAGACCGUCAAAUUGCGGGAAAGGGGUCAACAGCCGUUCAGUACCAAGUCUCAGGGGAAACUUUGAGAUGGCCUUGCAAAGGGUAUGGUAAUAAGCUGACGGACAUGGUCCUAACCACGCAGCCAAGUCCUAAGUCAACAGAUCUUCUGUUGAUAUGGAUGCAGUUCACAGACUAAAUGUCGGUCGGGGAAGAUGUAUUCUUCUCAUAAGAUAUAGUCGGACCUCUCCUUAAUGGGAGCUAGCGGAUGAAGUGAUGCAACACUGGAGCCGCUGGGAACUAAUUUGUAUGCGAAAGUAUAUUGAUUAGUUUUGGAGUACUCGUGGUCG;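 note: selection with 25 µg/mL kanamycin versus none on LB agar overnight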
- experimental-setup: 30 °C
quantity: self-splicing fitness (ln)
Numbers only.

>>> measured_value("GUAUAGCAAUAUUACGCAAU")
-1.98
>>> measured_value("UAUUAGCAAUAUUACGCUGG")
-2
>>> measured_value("AGUGAGCAAUAUUACGUAGC")
-1.99
>>> measured_value("UAUGAGCAAUAUUACGUAUA")
-2

Okay, next one:
[in] Returns the measured self-splicing fitness (ln) for the input sequence. Input: GUCAAGCAAUAUUACGCAAA
[out] -1.99

The origin of these recorded values is the supplement of paper PMC7877785.
